Value source: paper PMC4336329

# assay.target: human ether-à-go-go-related gene (hERG) potassium channel (human);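 note: peak tail current of the secondary pulse compared with the same well before compound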
# Sequence (Q12809 whole entry, looked up): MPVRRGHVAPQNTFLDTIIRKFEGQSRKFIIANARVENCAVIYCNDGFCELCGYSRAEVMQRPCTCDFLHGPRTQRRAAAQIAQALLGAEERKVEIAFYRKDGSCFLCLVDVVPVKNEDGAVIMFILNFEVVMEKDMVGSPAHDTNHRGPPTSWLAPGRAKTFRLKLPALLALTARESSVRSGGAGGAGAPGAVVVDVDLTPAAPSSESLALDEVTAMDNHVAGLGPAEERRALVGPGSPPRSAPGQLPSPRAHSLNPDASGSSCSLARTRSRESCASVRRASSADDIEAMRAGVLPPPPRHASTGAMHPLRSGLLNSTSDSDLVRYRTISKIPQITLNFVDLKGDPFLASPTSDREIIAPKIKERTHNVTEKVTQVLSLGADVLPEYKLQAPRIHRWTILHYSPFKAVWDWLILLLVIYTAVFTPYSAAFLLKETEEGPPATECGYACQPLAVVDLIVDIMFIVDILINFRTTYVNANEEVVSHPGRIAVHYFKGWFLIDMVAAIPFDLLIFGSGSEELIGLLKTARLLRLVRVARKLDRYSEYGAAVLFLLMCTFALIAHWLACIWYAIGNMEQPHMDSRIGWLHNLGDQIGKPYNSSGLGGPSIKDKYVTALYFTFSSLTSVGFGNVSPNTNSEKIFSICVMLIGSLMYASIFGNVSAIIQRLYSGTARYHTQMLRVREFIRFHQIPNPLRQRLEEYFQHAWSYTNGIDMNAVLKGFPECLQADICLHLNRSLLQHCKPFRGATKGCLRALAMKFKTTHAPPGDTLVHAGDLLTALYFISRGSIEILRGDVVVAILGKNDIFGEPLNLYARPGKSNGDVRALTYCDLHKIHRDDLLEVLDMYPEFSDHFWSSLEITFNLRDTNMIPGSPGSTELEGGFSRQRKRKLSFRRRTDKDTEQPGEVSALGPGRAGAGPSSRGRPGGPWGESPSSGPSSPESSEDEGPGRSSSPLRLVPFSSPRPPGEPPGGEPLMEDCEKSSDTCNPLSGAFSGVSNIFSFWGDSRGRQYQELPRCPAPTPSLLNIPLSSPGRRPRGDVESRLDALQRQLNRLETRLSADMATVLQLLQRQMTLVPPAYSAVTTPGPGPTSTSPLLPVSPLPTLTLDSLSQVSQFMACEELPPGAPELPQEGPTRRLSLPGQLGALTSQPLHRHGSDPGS
# procedure.text: primary screen, population patch clamp on CHO cells stably expressing hERG; higher = less effect of the substance
The whole screen tested about 310,000 compounds, of which about 14,000 (4.5%) showed an effect of 50% or more. Effects have a minus sign here. This excerpt belongs to a sample that is enriched for strong results.
Entries and their measured hERG current change (%, negative = inhibition) at 10uM follow.
Field format: number, assumed %, no unit text.

Below, each entry is followed by its recorded hERG current change (%, negative = inhibition) at 10uM result.
compound: COCCCn1cnc2c(c1=O)c1nc3ccccc3nc1n2-c1ccccc1
observed.value: -56.6
--
compound: CC1=CCC2C(=O)N(c3ccc(C)cc3)C(=O)C2C1 (stereo not drawn)
observed.value: -4.42

Consider the record given below.
Lab book: hERG current change (%, negative = inhibition) at 10uM of COc1ccccc1NC(=O)Cn1cncc1-c1ccc([N+](=O)[O-])cc1 noted as 2.57
